- ASSAY TEXT: PET/CT DOTATOC uptake by subcutaneous Jurkat T cell xenografts (0-100% SSTR2+)
- Assay type: in vivo, NSG mice
- PROTOCOL CONDITIONS: NSG (NOD/LtSz Prkdc^scid Il2rg^tm1Wjl/J), mouse, subcutaneous Jurkat tumor xenograft, tumors larger than 65 mm^3, 1% SSTR2+
RECORDED ENDPOINT: tissue uptake per volume (%ID/mL)
Report only the number, with the unit %ID/mL understood.

Given C[C@@H](O)[C@@H]1NC(=O)[C@H](CCCCN)NC(=O)[C@@H](Cc2c[nH]c3ccccc23)NC(=O)[C@H](Cc2ccc(O)cc2)NC(=O)[C@@H](NC(=O)[C@@H](Cc2ccccc2)NC(=O)CN2CCN(CC(=O)O)CCN(CC(=O)O)CCN(CC(=O)O)CC2)CSSC[C@@H](C(=O)N[C@H](CO)[C@@H](C)O)NC1=O [DOTATOC] , state its recorded tissue uptake per volume.
2

* * *

- ASSAY TEXT: PET/CT DOTATOC uptake by subcutaneous Jurkat T cell xenografts (0-100% SSTR2+)
- Assay type: in vivo, NSG mice
- PROTOCOL CONDITIONS: NSG (NOD/LtSz Prkdc^scid Il2rg^tm1Wjl/J), mouse, subcutaneous Jurkat tumor xenograft, tumors larger than 65 mm^3, 0.1% SSTR2+
RECORDED ENDPOINT: tissue uptake per volume (%ID/mL)
Please reply with the bare figure in %ID/mL and do not write the unit itself.

Tell me the measured tissue uptake per volume of C[C@@H](O)[C@@H]1NC(=O)[C@H](CCCCN)NC(=O)[C@@H](Cc2c[nH]c3ccccc23)NC(=O)[C@H](Cc2ccc(O)cc2)NC(=O)[C@@H](NC(=O)[C@@H](Cc2ccccc2)NC(=O)CN2CCN(CC(=O)O)CCN(CC(=O)O)CCN(CC(=O)O)CC2)CSSC[C@@H](C(=O)N[C@H](CO)[C@@H](C)O)NC1=O [DOTATOC] , please.
1.1

* * *

- ASSAY TEXT: PET/CT DOTATOC uptake by subcutaneous Jurkat T cell xenografts (0-100% SSTR2+)
- Assay type: in vivo, NSG mice
- PROTOCOL CONDITIONS: NSG (NOD/LtSz Prkdc^scid Il2rg^tm1Wjl/J), mouse, subcutaneous Jurkat tumor xenograft, tumors larger than 65 mm^3, 100% SSTR2+
RECORDED ENDPOINT: tissue uptake per volume
# include the unit after the value

Which tissue uptake per volume value is on record for C[C@@H](O)[C@@H]1NC(=O)[C@H](CCCCN)NC(=O)[C@@H](Cc2c[nH]c3ccccc23)NC(=O)[C@H](Cc2ccc(O)cc2)NC(=O)[C@@H](NC(=O)[C@@H](Cc2ccccc2)NC(=O)CN2CCN(CC(=O)O)CCN(CC(=O)O)CCN(CC(=O)O)CC2)CSSC[C@@H](C(=O)N[C@H](CO)[C@@H](C)O)NC1=O ?
7.1 %ID/mL
